# Tested on: MDCK p60AmotL2-inducible + doxycycline (p60AmotL2 expressing)
# Protocol notes: drug sensitivity score (DSS) from 5-dose viability curve (DSS (area-based score, 0 = no response)); higher = more sensitive (stronger viability inhibition); extreme values may be limits of the assay
# Applied conditions: doxycycline: 10 ng/mL; 72 h
Metric: drug sensitivity score

[[record]]
molecule = "CO[C@H]1C[C@@H]2CC[C@@H](C)[C@@](O)(O2)C(=O)C(=O)N2CCCC[C@H]2C(=O)O[C@H]([C@H](C)C[C@@H]2CC[C@@H](OCCO)[C@H](OC)C2)CC(=O)[C@H](C)/C=C(\\C)[C@@H](O)[C@@H](OC)C(=O)[C@H](C)C[C@H](C)/C=C/C=C/C=C/1C"
metric = "drug sensitivity score"
experimental_value = 8

[[record]]
molecule = "C#Cc1cccc(Nc2ncnc3cc4c(cc23)OCCOCCOCCO4)c1"
metric = "drug sensitivity score"
experimental_value = 7.8

[[record]]
molecule = "CC[C@]1(O)C[C@H]2CN(CCc3c([nH]c4ccccc34)[C@@](C(=O)OC)(c3cc4c(cc3OC)N(C=O)[C@H]3[C@@](O)(C(=O)OC)[C@H](OC(C)=O)[C@]5(CC)C=CCN6CC[C@]43[C@@H]65)C2)C1"
metric = "drug sensitivity score"
experimental_value = 23.1

[[record]]
molecule = "COc1cc2c(cc1-c1c(C)noc1C)ncc1[nH]c(=O)n([C@H](C)c3ccccn3)c12"
metric = "drug sensitivity score"
experimental_value = 10.9

[[record]]
molecule = "CCn1c(C(=O)N(C2CC2)C2CC2)cc2c3c(ncn3C)c(Nc3cc(C)n(C)n3)nc21"
metric = "drug sensitivity score"
experimental_value = 0

[[record]]
molecule = "CCc1cnn2c(NCc3ccc[n+]([O-])c3)cc(N3CCCC[C@H]3CCO)nc12"
metric = "drug sensitivity score"
experimental_value = 16.3

